Test system: LXRa:RXRa (NR concentration 270 nM, RXRa partner concentration 90 nM)
testDetails: PBM binding z-score (relative to random genomic background probes); higher = stronger binding; sequences stand for … in GC…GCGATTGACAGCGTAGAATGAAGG
observedProperty: PBM binding z-score

>>> df
                 macromoleculesequence  testvalue
 0  CAAACTAGGTCAAGAGGTCAAAGTACGCTTCCCG       6.18
 1  TCTGCTAGGTCAACAATGGTCAGCTAATCTGCTA       3.67
 2  TCTCGGAGGACACGAAGGTCAGTGCTTTCCAGAG       1.19
 3  TCATATGGGTAAAAGGTGAAAGTCGGTGTGGTAA       1.38
 4  CGAACTAGGGCATCCAGGACAGTGAATACATTGA     -0.226
 5  AGAATGAGGTTATTAAAATCAGGGAATTGCGGTC       1.04
 6  TCTCGGTGGACACGAAGGTCAGAGCTTTCCAGAG      0.962
 7  ATCTCGAGGTAAAGATAGTTCAGTGAATGCAAAT       5.34
 8  GCGACTGGGACAAAGCAGGTTACCATAAGGTTGG     -0.314
 9  AGAATGAGGTTATTTAGATCAGGGAATTGCGGTC        1.9
10  GATACAGGGTCAAGGCAAGAGTACGCGTATTGAT       4.47
11  TCTTGTAGAGCAAAGGTTAAGAAAGCCGAAGCCT       1.23
12  AGAACGAGGGCACGCTGAGTCGATAGCAGAGTAG      0.569
13  TCATATAGGTAAACAGGTGAAAGGCCGTAAGTTA      0.944
14  TAGCCTAGGTCATTCAGGGGCCAGTAGAGAAAGC       3.73
15  TCAATTAGTTGATTAGGGCAACCGAAACAGCGGA      0.188
16  CCTAATGGGCCATTCAGAGGTCATTGATCATATG       4.67
17  ATATGTAGGTTAGCTGGGGTCATTCAGACTAGGC       5.95
18  GATACAGGGTCAGCTCGAGGCCAGAGTATGGAAA       2.87
19  ATACCAAGGTGACCGTGAGGTCGTTGATACTAAC       2.05
20  CCAGACAGGTGGGAAGGTAACTCAGCCTCGATTA     -0.246
21  AGAACGAGGGCACGCTGATTTGATAGCAGAGTAG      0.541
22  TCGCGGAGGACACGAAAGGTCAGAGCTCGACATC       3.72
23  CAAACTAGGGCAAAGGTCAAAGTCGAGCCAACCA       6.32
24  TCTAGCAGGCCAGAGGTTCACTCAAGAGGTACGG     -0.361
25  CATACAGGGTCAGCTAGGGCAGAGTAGGGACGGC        3.1

----------
Test system: LXRb homodimer (NR concentration 270 nM)
testDetails: PBM binding z-score (relative to random genomic background probes); higher = stronger binding; sequences stand for … in GC…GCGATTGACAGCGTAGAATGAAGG
Rule: PBM binding z-score under -0.5 gives f, otherwise t.

In [3]: df
Out[3]:
                 macromoleculesequence  classassignment
 0  CCTCGGAGGACAAAAGGAGGTCAGAGCTGCCAGA                f
 1  CTACCAAGGTGAACAAGGTCGTTGAGTACTATTC                t
 2  GCGACTGTGGCATCAGCAGGTTACCATAACTTAA                f
 3  TATACAGGGTCAAAGGCCAGAGTGCGAATGTCGA                t
 4  GAAACGAGGGCAAGTTGATAGCAGAGTTTGATGG                f
 5  ACTTACGGGTCAACGAGGTTATTGCACGCGTATA                t
 6  CAAACTAGGTCAATGTCAAAGTCGGTTTGTGCCA                t
 7  ACTAGCAGGCCAAGTTTGGTTCACTCAAACAAAG                f
 8  AGTCAAAGTCCAGGACGAGGTAACGTAAAGCACG                f
 9  CGACCGAGGGCATGAGTTGATAGCAAATGCCGAT                f
10  TGGAGTAGGTTAGGGGCATTCAGAATGGCGTCGA                t
11  TCATATAGGTATAGGTGAAAGTCGAACGATATGA                t
12  TCTTGTAGATCAGGAGGTTAAGAAAGCTGGCCAA                t
13  TTACCAAGGTGAGTTGAGGTCGTTGATCCAACTC                f
14  CCGAGTAGGTTATGAGGCATTCAGGCAACGGTGA                t
15  AATACAGGGTCATCATAGGCCAGAGTACGCACAG                t
16  CAAACTAGGTGAAGAGGTCAAAGTCCGCTTCCCG                t
17  TCTCGGAGGCCACGAAAGGTCAGAGCTCGACATC                t
18  AATACAGGGTCATCGTAGGCCGGAGTACGCACAG                t
19  TCTCGGAGGACACGAAGGTCAGACCTTTCCAGAG                f
20  AGAACGAGGGCATGCTGAGTTGATAGCAGAGTAG                f
21  CGTCAAAGTTCCACTAAGGTAACGTAAAGCACGC                t
22  GCGACGGGGGCAAAGCAGGTTACCATAAGGTTGG                t
23  CCTTACTGGTCACTGACAGGTTATAGCATTTGGA                t
24  TCTTTTAGTTGATTAGGGCAACCGAAACAGCGGA                t
25  TCTCGGAGGACACGAAGGTCAGAGCATTCCAGAG                f
